Here, each record is paired with measured […] IN HEIGHT, SR (Root) data.
- System: Sunflower
- Measurement notes: Modified Intermediate Retardant Test, sunflower
- Type: in vivo
- Condition notes: 2000 g/ha, root drench, height to apex 14 days after treatment
- Procedure: The general Intermediate Retardant Test described in Example 62 was modified by the addition of Sunflowers (SR) and the variety and growth stages at spray are outlined in Table XIII. […] Barley and rice were assessed for height to topmost ligule 21 days after treatment; apples were assessed for height to apex at 21 days after treatment; and sunflowers were assessed for height to apex at 14 days after treatment. […]
Assay readout: […] IN HEIGHT, SR (Root) (%)

- Compound: "CCCCCC#CC(O)(c1cncnc1)C(C)C (centres unmarked)"
  Reported result: 45
- Compound: "CCCCCC#CC(O)(c1cncnc1)C(C)(C)C (centres unmarked)"
  Reported result: 37
- Compound: "CCCCC#CC(O)(c1cncnc1)C(C)(C)C (centres unmarked)"
  Reported result: 51
- Compound: "CCCCCCC#CC(O)(c1cncnc1)C(C)C (centres unmarked)"
  Reported result: 3
- Compound: "CCC/C=C\\C(O)(c1cncnc1)C(C)C (centres unmarked)"
  Reported result: 54
